ASSAY TEXT: Bmi1 luciferase reporter increase in mESCs, primary screen, esBAF inhibitor project, mouse ES cells, Bmi1 luciferase knock-in, single point (AID 602393);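 note: a rise in the Bmi1 reporter signal indicates esBAF inhibition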
CONDITION INFO: 24 h, at 12.5 µM, 100% = twice the neutral-well signal
Hit rate of the full screen: of about 350,000 compounds, about 7,000 (2%) were called active. Cut-off read from the data, not from the text of the source: active = activation above about 40%; inconclusive = no clear call, values can overlap the other calls; inactive = below that. This excerpt belongs to a sample that is enriched for actives.
Outcomes: active, inactive

MOLECULE	LABEL CLASS
COc1ccc(C(=O)NC(=S)NNC(=O)CCc2ccccc2)cc1	active
COC(=O)C[C@@H]1CC[C@@H]2[C@H](COc3ccc(NC(=O)c4ccccc4OC)cc3C(=O)N2C)O1	inactive
CC(C)C(=O)Nc1c(C(=O)c2ccc(F)cc2)oc2ccccc12	inactive
CCN(CC)S(=O)(=O)c1ccc(-c2cn3ccc(C)cc3n2)cc1	active
COc1cccc(C(=O)Nc2nnc(S(=O)(=O)N(C)c3ccccc3)s2)c1	inactive
CCCc1nc(-c2cc3cc(C)ccc3[nH]c2=O)no1	inactive
Cc1ccccc1C(=O)NC(=S)NC1CC1	inactive
COc1ccccc1Cc1nc(-c2ccc(C)cc2)no1	active
O=C(Nc1ccccc1N1CCOCC1)c1csc2c1CCCC2	inactive
CCc1cccc(NC(=O)COC(=O)c2cc(=O)c3ccccc3o2)c1	inactive
Cc1ccc(OCC(=O)NCCCNC(=O)c2cccnc2)cc1C	inactive
CCn1nnc(NC(=O)c2c(OC)cccc2OC)n1	inactive
CCN(c1cccc(C)c1)S(=O)(=O)c1ccc(-c2coc(C)n2)cc1	inactive
CC(C)C(=O)Nc1ccc2c(c1)oc1ccccc12	active
Cc1ccc(-c2noc(CC(c3ccccc3)c3ccccc3)n2)cc1	inactive
O=C(NC(=S)NC1CCCCC1)c1ccc(Cl)cc1	active
COc1cccc(C(=O)Nc2nc3ccc(S(C)(=O)=O)cc3s2)c1	active
CO[C@H]1CN(C)C(=O)c2ccc(NC(=O)C3CCCC3)cc2OC[C@@H](C)NC[C@@H]1C	inactive
Cc1ccc(-c2noc(CNC(=O)c3ccoc3C)n2)cc1	inactive
N#CCSc1nc(-c2ccccc2)nc2ccc(F)cc12	inactive
COc1ccc(CNC(=O)C[C@H]2CC[C@@H]3[C@H](COc4ccc(NC(=O)C5CC5)cc4C(=O)N3C)O2)cc1	inactive
C[C@@H]1CN([C@H](C)CO)C(=O)c2c(c3ccccc3n2C)-c2ccccc2CO[C@@H]1CN(C)C(=O)Nc1ccccc1	inactive
CCCCN(CC)CCCNC(=O)c1ccc(CSc2nc3ccncc3[nH]2)cc1	inactive
COc1ccccc1CSc1nc2ccccc2[nH]1	active
COc1ccc2nc(NC(=O)c3ccc(Br)s3)sc2c1	active
C[C@@H]1CN([C@H](C)CO)C(=O)c2cc(NS(=O)(=O)c3ccc(Cl)cc3)ccc2O[C@@H]1CN(C)CC1CCCCC1	inactive
COc1ccccc1CNC(=O)C[C@@H]1CC[C@H]2[C@@H](COc3ccc(NS(=O)(=O)c4ccc(C)cc4)cc3C(=O)N2C)O1	inactive
CC(C)CC#Cc1cnc2c(c1)C(=O)N([C@H](C)CO)C[C@H](C)[C@@H](CN(C)C(=O)Cc1cccnc1)O2	inactive
COc1ccc(C(C)(O)c2nc(-c3cc(F)cc(F)c3)cs2)cc1 (stereo unspecified)	inactive
Cc1noc(C)c1S(=O)(=O)N(C)C[C@@H]1OCCCC[C@@H](C)Oc2ccc(NC(=O)c3ccccc3)cc2C(=O)N([C@@H](C)CO)C[C@@H]1C	inactive
Cc1noc(C)c1S(=O)(=O)Nc1ccc2c(c1)CC(=O)N([C@@H](C)CO)C[C@@H](C)[C@H](CN(C)S(=O)(=O)c1cccs1)O2	inactive
COc1ccccc1-c1noc(CSc2nc(C)cc(=O)[nH]2)n1	inactive
CC1CC(C)CN(CCCNC(=O)c2csc3c2CCCCC3)C1 (stereo unspecified)	inactive
COc1cc(NC(=O)CN(C)S(=O)(=O)c2ccc3nc(C)sc3c2)cc(OC)c1	inactive
CCCOc1cccc(C(=O)Nc2nnn(CCC)n2)c1	active
COc1cccc(NC(=O)N[C@@H]2C=C[C@H](CC(=O)NCc3ccccn3)O[C@H]2CO)c1	inactive
COC(=O)c1sc(NC(=O)c2csc3c2CCCC3)nc1C	active
COc1ccc(-c2cc3ncccc3cn2)cc1	inactive
O=[N+]([O-])c1ccc(N2CCOCC2)cc1	inactive
C/C(=N\Nc1nncc2ccccc12)c1ccc(Cl)c([N+](=O)[O-])c1	active
CCCN1[C@H](C(=O)NCC)[C@@H](CO)[C@@H]2Cn3c(ccc(C4=CCCC4)c3=O)[C@@H]21	inactive

Just for reference, PubChem BioAssay AID602393 is where these values come from.
